- Test system: glucose-6-phosphate dehydrogenase-6-phosphogluconolactonase (PfGluPho), Plasmodium falciparum 3D7
- protocol.description: malaria parasite PfGluPho enzyme inhibition – biochemical, fluorescence intensity, single concentration, confirmation (AID 504753)
- measurement.context: recombinant PfGluPho, NADPH-diaphorase-resazurin fluorescence; at 20 µM; stronger effect = higher value
Among all 2,400 compounds or so, about 820 (34%) were called active. Only a sample is shown.
Note that class boundaries on inhibition are Low: < 30%; Medium: ≥ 30% and < 60%; High: ≥ 60%

compound | category.label
CCc1c(C)[nH]c(=S)c(C#N)c1C | Medium
C=CCc1ccccc1OCC(=O)N/N=C/c1ccccc1OCC | Medium
CCOc1ccccc1/C=N/NC(=O)CNC(=O)COc1ccccc1 | High
CCN1CCCC1CNC(=O)c1ccc2c(c1)NC(=O)/C(=C\c1ccccc1F)S2 (stereo unspecified) | High

Looking at COc1cc(C2CC(=O)N3CN(Cc4ccccc4)CSC3=C2C#N)ccc1OCc1ccccc1 (stereo unspecified) , which class would you pick? Low

Looking at O=C(N/N=C\c1cccc(Br)c1)c1ccccc1-n1cccc1 , which class would you pick? Medium

Looking at O=C(Nc1sc2c(c1C(=O)O)CCC2)c1ccccc1F , which class would you pick? Medium

Looking at c1ccc(-c2cn3c(n2)CCc2ccc4cccnc4c2-3)cc1 , which class would you pick? Medium

Looking at O=C1C=CC(=O)N1c1ccc(N2CCCCC2)cc1 , which class would you pick? High

Looking at COc1ccc(Cl)cc1NC(=O)CN(C)C(=O)CCCc1c[nH]c2ccccc12 , which class would you pick? Low

###

- Tested on: glucose-6-phosphate dehydrogenase-6-phosphogluconolactonase (PfGluPho), Plasmodium falciparum 3D7
- protocol.description: malaria parasite PfGluPho enzyme inhibition – biochemical, fluorescence intensity, single concentration, confirmation (AID 504753)
- measurement.context: recombinant PfGluPho, NADPH-diaphorase-resazurin fluorescence; at 20 µM
The whole screen tested about 2,400 compounds, of which about 820 (34%) were called active.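 How the source made its calls: active means inhibition of at least 50% at 20 µM in any single replicate; inactive means the rest.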 A selection follows.
The reply should name one outcome from active, inactive

molecule | category.label
Cn1c(-c2sccc2OCc2cccc(C(F)(F)F)c2)n[nH]c1=S | active
CCOc1cccc(/C=N/N2C(=O)CSC2=S)c1O | inactive
Cc1cccc(-n2c(N)c(C(=O)N3CCN(C)CC3)sc2=S)c1 | inactive
COc1ccc(C(=O)Nc2ccccc2C(=O)N/N=C/c2ccc(O)c(OC)c2)cc1 | inactive
Oc1c(CN2CCOCC2)ccc(CN2CCOCC2)c1O | inactive

Please let me know the test result on file for CCC(=C/c1sc2ccc3ccccc3c2[n+]1C)/C=C1\Sc2ccc3ccccc3c2N1C . inactive

Please let me know the test result on file for COc1ccc(OCc2n[nH]c(=S)n2N)cc1 . inactive

Please let me know the test result on file for COC(=O)CCCC1=CC2=CC(=O)C(C)(OC(=O)c3cccs3)C(=O)C2=CN1CC(C)C (stereo not drawn) . inactive

###

- Tested on: glucose-6-phosphate dehydrogenase-6-phosphogluconolactonase (PfGluPho), Plasmodium falciparum 3D7
- protocol.description: malaria parasite PfGluPho enzyme inhibition – biochemical, fluorescence intensity, single concentration, confirmation (AID 504753)
- measurement.context: recombinant PfGluPho, NADPH-diaphorase-resazurin fluorescence; at 20 µM; stronger effect = higher value
Hit rate of the full screen: of about 2,400 compounds, about 820 (34%) were called active. Not all results are given here.
Lab note: compare inhibition against 30%. Equal or greater, write yes. Smaller, write no.

Look over these answered cases.
compound | category.label
CC(C)(C)c1nnc(NC(=O)C2c3ccccc3Oc3ccccc32)s1 | no
Cc1ccc(C(=O)/C=C/c2c(C)nn(-c3ccccc3)c2Cl)cc1 | no
O=C(Nc1nnc(S(=O)(=O)N2CCOCC2)s1)c1cccc(Br)c1 | yes
CCOc1ccccc1Nc1ccc2nonc2c1[N+](=O)[O-] | yes
COc1cccc(C(=O)Nc2nnc(S(=O)(=O)N(C)c3ccccc3)s2)c1 | yes
Cc1ccc2nc(-c3cccc(Br)c3)cc(C(=O)Nn3cnnc3)c2c1 | no

Textbook exercise: given the entry Cc1cccn2c(CN(C)C3CCCc4ccccc43)c(C(=O)N3CCOCC3)nc12 (stereo not given) , state whether its inhibition is greater than or equal to 30%. yes

Data provenance: PubChem BioAssay AID504753
